The values you see were collected from ChEMBL document CHEMBL4118183.

Give viability at 24 h, 0.25 µM for every item shown.
- experimental details: Cytotoxicity against human Friedreich's ataxia lymphocytes assessed as cell viability by measuring live cells at 250 nM after 24 hrs by calceinAM ester/ethidium homodimer-1 staining based flow cytometry (reference value: 88.2%)
- Design: species or system Friedreich's ataxia lymphocyte
- stated conditions: read-out: Activity

Challenge: Requested field: viability at 24 h, 0.25 µM. Item: CCCCCCCCCCCCCCCc1cc2nc3ccc(N(C)C)cc3sc-2cc1=[N+](C)C.[I-]
Response given: 89.4%

Challenge: Requested field: viability at 24 h, 0.25 µM. Item: CCCCCCCCCCCCCc1cc2nc3ccc(N(C)C)cc3sc-2cc1=[N+](C)C.[I-]
Response given: 89.3%

Challenge: Requested field: viability at 24 h, 0.25 µM. Item: CCCCCCCCCCCc1cc2nc3ccc(N(C)C)cc3sc-2cc1=[N+](C)C.[I-]
Response given: 89.5%

Challenge: Requested field: viability at 24 h, 0.25 µM. Item: CCCCCc1cc2nc3ccc(N(C)C)cc3sc-2cc1=[N+](C)C.[I-]
Response given: 82.6%

Challenge: Requested field: viability at 24 h, 0.25 µM. Item: CN(C)c1ccc2nc3ccc(=[N+](C)C)cc-3sc2c1 [METHYLENE BLUE ANHYDROUS]
Response given: 85.4%

Challenge: Requested field: viability at 24 h, 0.25 µM. Item: CCCCCCCCCCCCCCCCCc1cc2nc3ccc(N4CCOCC4)cc3sc-2cc1=[N+]1CCOCC1.[I-]
Response given: 91.3%

Challenge: Requested field: viability at 24 h, 0.25 µM. Item: CCCCCCCCCCCCCCCCc1cc2nc3ccc(N(C)C)cc3sc-2cc1=[N+](C)C.[I-]
Response given: 91.4%

Challenge: Requested field: viability at 24 h, 0.25 µM. Item: CCCCCCCCCCCCCCCCCc1cc2nc3ccc(N(C)C)cc3sc-2cc1=[N+](C)C.[I-]
Response given: 91%
